Test: cn = amount concentration of the nth substance listed, in mol/dm3
Details: 293 K, Ring tensiometer, c1 = 0.0002
Mark false for surface tension liquid-gas values under 60 mN/m, and true for everything at or above.

Can CCCCCCCCCCCCCC[N+](C)(C)C.[Br-] [tetradecyltrimethylammonium bromide] + O be said to have surface tension liquid-gas at or above 60 mN/m?
true

Can CCCCCCCCCCCCCCCC[n+]1ccccc1.[Br-] [1-hexadecylpyridinium bromide] + O be said to have surface tension liquid-gas at or above 60 mN/m?
false

Can CCCCCCCCCCCCOS(=O)(=O)[O-].[Na+] [sodium dodecyl sulfate] + O be said to have surface tension liquid-gas at or above 60 mN/m?
true

---

Assay: cn = amount concentration of the nth substance listed, in mol/dm3
Details: 303 K, Ring tensiometer, c1 = 0.002
ENDPOINT: surface tension liquid-gas (mN/m)
Give a bare numeral; the unit mN/m is implied.

Give reported surface tension liquid-gas value for CCCCCCCCCCCC[N+](C)(C)Cc1ccccc1.[Br-] [benzenemethanaminium, N-dodecyl-N,N-dimethyl, bromide] + O
40

Give reported surface tension liquid-gas value for CCCCCCCCCCCC[N+](C)(C)CC.[Br-] [dodecyl ethyl dimethylammonium bromide] + O
60.54

Give reported surface tension liquid-gas value for CCCCCCCCCCCCOS(=O)(=O)[O-].[Na+] [sodium dodecyl sulfate] + O
57.02

Give reported surface tension liquid-gas value for CCCCCCCCCCCCN(C)CC(=O)[O-].[Na+] [sodium laurylsarcosinate] + O
32.39

Give reported surface tension liquid-gas value for CCCCCCCCCCCCCCCC[N+](C)(C)C.[Br-] [N,N,N-trimethyl-1-hexadecanaminium bromide] + O
37.14

Give reported surface tension liquid-gas value for CCCCCCCCCCCCCCCC[n+]1ccccc1.[Br-] [1-hexadecylpyridinium bromide] + O
43.81

---

Form field: surface tension liquid-gas (one value per entry).
Test: cn = amount concentration of the nth substance listed, in mol/dm3
Details: 293 K, Ring tensiometer, c1 = 0.00501
Give a bare numeral; the unit mN/m is implied.

Solved cases below.
CCCCCCCCCCCC[N+](C)(C)Cc1ccccc1.[Br-] [benzenemethanaminium, N-dodecyl-N,N-dimethyl, bromide] + O : 34.5
CCCCCCCCCCCCN(C)CC(=O)[O-].[Na+] [sodium laurylsarcosinate] + O : 26.5
CCCCCCCCCCCCCC[N+](C)(C)C.[Br-] [tetradecyltrimethylammonium bromide] + O : 36.3

Give reported surface tension liquid-gas value for CCCCCCCCCCCC[N+](C)(C)CC.[Br-] [dodecyl ethyl dimethylammonium bromide] + O
50

---

Test: cn = amount concentration of the nth substance listed, in mol/dm3
Settings: 293 K, Ring tensiometer, c1 = 1e-07
Form field: surface tension liquid-gas (one value per entry).
Give a bare numeral; the unit mN/m is implied.

Solved cases below.
CCCCCCCCCCCCCCCC[N+](C)(C)C.[Br-] [N,N,N-trimethyl-1-hexadecanaminium bromide] + O : 72.78
CCCCCCCCCCCC[N+](C)(C)Cc1ccccc1.[Br-] [benzenemethanaminium, N-dodecyl-N,N-dimethyl, bromide] + O : 72.4
CCCCCCCCCCCCOS(=O)(=O)[O-].[Na+] [sodium dodecyl sulfate] + O : 72.9
CCCCCCCCCCCCN(C)CC(=O)[O-].[Na+] [sodium laurylsarcosinate] + O : 72.4
CCCCCCCCCCCCCCCC[n+]1ccccc1.[Br-] [1-hexadecylpyridinium bromide] + O : 72.75

Give reported surface tension liquid-gas value for CCCCCCCCCCCCCC[N+](C)(C)C.[Br-] [tetradecyltrimethylammonium bromide] + O
72.4

Give reported surface tension liquid-gas value for CCCCCCCCCCCC[N+](C)(C)CC.[Br-] [dodecyl ethyl dimethylammonium bromide] + O
72.6

Give reported surface tension liquid-gas value for CCCCCCCCCCCCCCCCS(=O)(=O)[O-].[Na+] [sodium hexadecylsulfonate] + O
72.8

---

Assay: cn = amount concentration of the nth substance listed, in mol/dm3
Conditions: 293 K, Ring tensiometer, c1 = 0.00316
ENDPOINT: surface tension liquid-gas (mN/m)
Give a bare numeral; the unit mN/m is implied.

Solved cases below.
CCCCCCCCCCCC[N+](C)(C)Cc1ccccc1.[Br-] [benzenemethanaminium, N-dodecyl-N,N-dimethyl, bromide] + O : 37.8
CCCCCCCCCCCC[N+](C)(C)CC.[Br-] [dodecyl ethyl dimethylammonium bromide] + O : 56.4
CCCCCCCCCCCCCC[N+](C)(C)C.[Br-] [tetradecyltrimethylammonium bromide] + O : 36.7

Then this molecule:
Give reported surface tension liquid-gas value for CCCCCCCCCCCCN(C)CC(=O)[O-].[Na+] [sodium laurylsarcosinate] + O
28.3

---

Experiment: cn = amount concentration of the nth substance listed, in mol/dm3
Conditions: 303 K, Ring tensiometer, c1 = 5.01e-05
± gives the expanded uncertainty stated by the source.
ENDPOINT: surface tension liquid-gas
Field: value (include unit after the number)

Solved cases below.
CCCCCCCCCCCCCCCC[N+](C)(C)C.[Br-] [N,N,N-trimethyl-1-hexadecanaminium bromide] + O : 67.72 ± 1.3 mN/m
CCCCCCCCCCCC[N+](C)(C)Cc1ccccc1.[Br-] [benzenemethanaminium, N-dodecyl-N,N-dimethyl, bromide] + O : 65.88 ± 1.3 mN/m
CCCCCCCCCCCCN(C)CC(=O)[O-].[Na+] [sodium laurylsarcosinate] + O : 67.57 ± 1.3 mN/m
CCCCCCCCCCCC[N+](C)(C)CC.[Br-] [dodecyl ethyl dimethylammonium bromide] + O : 70.54 ± 1.3 mN/m

Give reported surface tension liquid-gas value for CCCCCCCCCCCCOS(=O)(=O)[O-].[Na+] [sodium dodecyl sulfate] + O
70.81 ± 1.3 mN/m

Give reported surface tension liquid-gas value for CCCCCCCCCCCCCCCC[n+]1ccccc1.[Br-] [1-hexadecylpyridinium bromide] + O
66.38 ± 1.3 mN/m

---

Assay: cn = amount concentration of the nth substance listed, in mol/dm3
Conditions: 313 K, Ring tensiometer, c1 = 0.0001
Form field: surface tension liquid-gas (one value per entry).
Give a bare numeral; the unit mN/m is implied.

Solved cases below.
CCCCCCCCCCCCCCCC[N+](C)(C)C.[Br-] [N,N,N-trimethyl-1-hexadecanaminium bromide] + O : 64.28
CCCCCCCCCCCCCCCCS(=O)(=O)[O-].[Na+] [sodium hexadecylsulfonate] + O : 64.15

Give reported surface tension liquid-gas value for CCCCCCCCCCCCCCCC[n+]1ccccc1.[Br-] [1-hexadecylpyridinium bromide] + O
60.65

Give reported surface tension liquid-gas value for CCCCCCCCCCCCOS(=O)(=O)[O-].[Na+] [sodium dodecyl sulfate] + O
69.05

Give reported surface tension liquid-gas value for CCCCCCCCCCCC[N+](C)(C)CC.[Br-] [dodecyl ethyl dimethylammonium bromide] + O
68.89

Give reported surface tension liquid-gas value for CCCCCCCCCCCCN(C)CC(=O)[O-].[Na+] [sodium laurylsarcosinate] + O
64.45

Give reported surface tension liquid-gas value for CCCCCCCCCCCCCC[N+](C)(C)C.[Br-] [tetradecyltrimethylammonium bromide] + O
66.58

Give reported surface tension liquid-gas value for CCCCCCCCCCCC[N+](C)(C)Cc1ccccc1.[Br-] [benzenemethanaminium, N-dodecyl-N,N-dimethyl, bromide] + O
61.81

---

Experiment: cn = amount concentration of the nth substance listed, in mol/dm3
Settings: 313 K, Ring tensiometer, c1 = 0.002
Mark n for surface tension liquid-gas values under 40 mN/m, and y for everything at or above.

Before answering, review these 5 worked examples.
CCCCCCCCCCCCN(C)CC(=O)[O-].[Na+] [sodium laurylsarcosinate] + O : n
CCCCCCCCCCCC[N+](C)(C)CC.[Br-] [dodecyl ethyl dimethylammonium bromide] + O : y
CCCCCCCCCCCCCCCC[n+]1ccccc1.[Br-] [1-hexadecylpyridinium bromide] + O : y
CCCCCCCCCCCCCC[N+](C)(C)C.[Br-] [tetradecyltrimethylammonium bromide] + O : y
CCCCCCCCCCCCCCCC[N+](C)(C)C.[Br-] [N,N,N-trimethyl-1-hexadecanaminium bromide] + O : n

Turning to the following molecule.
Can CCCCCCCCCCCCOS(=O)(=O)[O-].[Na+] [sodium dodecyl sulfate] + O be said to have surface tension liquid-gas at or above 40 mN/m?
y

---

Experiment: cn = amount concentration of the nth substance listed, in mol/dm3
Conditions: 293 K, Ring tensiometer, c1 = 1e-06
± gives the expanded uncertainty stated by the source.
ENDPOINT: surface tension liquid-gas
Field: value (include unit after the number)

Solved cases below.
CCCCCCCCCCCCCCCC[n+]1ccccc1.[Br-] [1-hexadecylpyridinium bromide] + O : 72.6 ± 1.3 mN/m
CCCCCCCCCCCCOS(=O)(=O)[O-].[Na+] [sodium dodecyl sulfate] + O : 72.79 ± 1.3 mN/m
CCCCCCCCCCCCCC[N+](C)(C)C.[Br-] [tetradecyltrimethylammonium bromide] + O : 72.2 ± 1.3 mN/m

Give reported surface tension liquid-gas value for CCCCCCCCCCCCN(C)CC(=O)[O-].[Na+] [sodium laurylsarcosinate] + O
72 ± 1.3 mN/m
